# subject of test: human Brd4 BD1 (Homo sapiens)
# measurement notes: HTRF assay, inhibition of BD binding to H4ac4 peptide
# Design: human Brd4 BD1 (residues 22–204); His tag with TEV site (N, cleaved yes); made in house; host or cells: E. coli BL21(DE3)
recorded metric: pIC50
Field pIC50 (float): negative decimal logarithm of the concentration in molar.

[Q] Tell me the measured pIC50 of CN1C(=O)c2ccccc2Sc2cc(NC(=O)C3CCCO3)ccc21 (stereo not shown) , please.
[A] 4.90
